Reference source for all entries: the supplement of paper PMC8967900

tested on: HAL-01; assay: selective drug sensitivity score (sDSS, relative to normal bone marrow) (sDSS (score)); higher = more potent and effective on the cell line relative to normal bone marrow cells; settings: 72 h;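 further: ALL cell lines in 384-well plates, five doses spanning 10,000-fold, each plate scaled between vehicle and 100 µmol/L benzalkonium chloride controls, sDSS an adapted area-under-curve metric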
Quick list: selective drug sensitivity score per entry.
Please respond with just the number, no unit label.

COc1cc(C)[nH]c(=O)c1CNC(=O)c1c(C)n([C@H](C)C2CCOCC2)c2ccccc12 [CPI-360] (top concentration 10000 nM) :: 1.3
CC(=O)Nc1cccc(-n2c(=O)n(C3CC3)c(=O)c3c(Nc4ccc(I)cc4F)n(C)c(=O)c(C)c32)c1 [Trametinib] (top concentration 250 nM) :: 2.36
O=C(O)C(=O)O.[NH-][C@@H]1CCCC[C@H]1[NH-].[Pt+2] [Oxaliplatin] (top concentration 100000 nM) :: 15.3
CCc1cnn2c(NCc3ccc[n+]([O-])c3)cc(N3CCCC[C@H]3CCO)nc12 [Dinaciclib] (top concentration 1000 nM) :: -5.74
CCOC(=O)C1=CCCC[C@H]1S(=O)(=O)Nc1ccc(F)cc1Cl [Resatorvid] (top concentration 10000 nM) :: 0

response.value for Nc1ncnc2c1c(COc1cccc(Cl)c1)nn2C1CCOCC1 (top concentration 10000 nM) (field: selective drug sensitivity score) = 4.06

====

system: TANOUE; experiment: selective drug sensitivity score (sDSS, relative to normal bone marrow) (sDSS (score)); higher = more potent and effective on the cell line relative to normal bone marrow cells; details: 72 h
metric: selective drug sensitivity score
Output spec: single numeric token, no unit.

Example cases with answers are listed next.
O=c1[nH]c(C2CCCN2)nc2c1oc1ccc(Cl)cc12 (configuration not stated) (top concentration 10000 nM) :: -2.8
COCCOc1cnc2ccn([C@H](C)c3nnc4c(F)cc(-c5cnn(C)c5)cn34)c(=O)c2c1 [AMG-337] (top concentration 10000 nM) :: -0.06
N#Cc1ccc(COC[C@H]2O[C@@H](n3c(NCc4ccc(Cl)c(Cl)c4)nc4c(N)ncnc43)[C@H](O)[C@@H]2O)cc1 (top concentration 10000 nM) :: 1.42

Looking up CC(C)n1cnc2c(NCCc3ccc(O)cc3)nc(-c3csc4ccccc34)nc21 [StemRegenin_1] (top concentration 10000 nM) , I see its selective drug sensitivity score listed as 4.2

Short answer for C=C1C[C@@H]2[C@H](CC[C@]3(C)C(=O)CC[C@@H]23)[C@@]2(C)C=CC(=O)C=C12 [Exemestane] (top concentration 10000 nM) : selective drug sensitivity score was -0.7

Value of selective drug sensitivity score reported for the compound O=C(O)C(=O)O.[NH-][C@@H]1CCCC[C@H]1[NH-].[Pt+2] [Oxaliplatin] (top concentration 100000 nM) is -6.98

// field: selective drug sensitivity score; key: COc1cc([C@@H]2c3cc4c(cc3[C@@H](O[C@@H]3O[C@@H]5CO[C@@H](c6cccs6)O[C@H]5[C@H](O)[C@H]3O)[C@H]3COC(=O)[C@H]23)OCO4)cc(OC)c1O [Teniposide] (top concentration 10000 nM) ; value = 0

Sample Sc1ncnc2nc[nH]c12 [Mercaptopurine] (top concentration 10000 nM) ; selective drug sensitivity score observed: 7.2

Note to self: selective drug sensitivity score recorded for CC1CCC(n2c3cnccc3c3cnc(Nc4ccc5c(n4)CCN(C(=O)CO)C5)nc32)CC1 (configuration not stated) [AMG-925] (top concentration 1000 nM) was 1.94

Reported selective drug sensitivity score of CCC(C)(C)C(=O)O[C@H]1C[C@@H](C)C=C2C=C[C@H](C)[C@H](CC[C@@H]3C[C@@H](O)CC(=O)O3)[C@H]21 [Simvastatin] (top concentration 10000 nM) : -0.72

Quick note, selective drug sensitivity score for NCC(=O)Nc1ccc(-n2nc(C(F)(F)F)cc2-c2ccc3c(ccc4ccccc43)c2)cc1 (top concentration 25000 nM) landed at 4.7

selective drug sensitivity score for Cc1ncc(-c2ccnc(Nc3ccc(S(C)(=O)=O)cc3)n2)n1C(C)C [AZD-5438] (top concentration 10000 nM) is -9.96
